# System: Fibrinogen (Alexa647-labelled)
# assay text: fibrinogen binders on compound microarrays, profiling panel, artefact control for SMM control-protein annotation, biochemical, small-molecule microarray, 635/667 nm fluorescence (AID 1131);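 note: z-score merges 667 nm fluorescence with per-spot signal-to-noise over triplicate slides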
# reported conditions: fibrinogen-A647 binding fluorescence, higher = more signal
In this scheme, each record receives a class according to its composite z-score; the ranges are c1: < -0.6; c2: ≥ -0.6 and < 0.8; c3: ≥ 0.8

[[record]]
compound = "C=CCOC(=O)[C@@H]1[C@H]2C(=O)O[C@H](c3ccccc3)[C@H](c3ccccc3)N2[C@H](c2ccc(OCCOC(=O)[C@@H]3C[C@@H]4C(=O)N[C@@H](Cc5ccccc5)C(=O)N4[C@@H]3c3cccc(OCCO)c3)cc2)[C@@]12C(=O)Nc1ccc(I)cc12"
label = "c2"

[[record]]
compound = "COC(=O)[C@@]1(Cc2ccccc2)[C@H]2c3cc(C(=O)N4CCCC4)n(Cc4ccc(C)o4)c3C[C@H]2CN1C(=O)c1ccccc1"
label = "c1"

[[record]]
compound = "COC(=O)c1ccc(C(O)C2C=CC3C(=O)N(c4ccccc4)C(=O)C3N2Nc2ccc(C#N)cc2)o1 (stereo not given)"
label = "c3"

[[record]]
compound = "COc1c(C)cc(-c2cc3c(c(-c4ccc(Oc5ccccc5)cc4)n2)[Si](C(C)C)(C(C)C)OC3)cc1C"
label = "c2"

[[record]]
compound = "CC(C)Cc1ccc(CN2CC[C@@H](NS(=O)(=O)c3ccccc3)C2)cc1"
label = "c1"

[[record]]
compound = "CCCNC(=O)[C@@]1(c2ccc([N+](=O)[O-])cc2)CC(=O)N(CC23CC4CC(CC(C4)C2)C3)[C@@H]1c1ccc(CO)cc1"
label = "c2"

[[record]]
compound = "CC(C)(C)OC(=O)CC[C@@]1(C(=O)NCCN2CCOCC2)N=C(c2ccc(OCCCO)cc2)O[C@@H]1c1ccccc1"
label = "c3"

[[record]]
compound = "COCCOC(=O)N1C(=O)[C@@]2(c3cc(C#CCC(C(=O)OC)C(=O)OC)ccc31)[C@H](C(=O)N1CCN(c3ncccn3)CC1)[C@H]1C(=O)O[C@H](c3ccccc3)[C@H](c3ccccc3)N1[C@@H]2c1ccc(OCCO)cc1"
label = "c3"

[[record]]
compound = "O=c1cccc(C=Cc2ccccc2)o1"
label = "c2"

